# Lookup of reported pIC50 keyed by entry
test system: HT-29; experiment: Cytotoxicity against human HT-29 cells after 48 hrs by MTT assay; type: functional, cell-based; settings: HT-29, 48 h
Just so you know, pIC50 here is -log10 of the concentration in molar units; reply with that number alone.

The examples below pair each entry with its known result.
compound=CC(C)=CCC[C@]1(C)C=Cc2c(O)c3c(c(CC=C(C)C)c2O1)O[C@]12C(=C[C@@H]4C[C@H]1C(C)(C)O[C@@]2(C/C=C(/C)C(=O)O)C4=O)C3=O endpointresult=5.45
compound="C/C(=C/C[C@@]12OC(C)(C)[C@H]3C[C@@H](C=C4C(=O)c5c(O)c6c(c(CCC(C)(C)Cl)c5O[C@]431)O[C@]1(C)CCC(C3(C)CO3)C6C1)C2=O)C(=O)O (stereo not given in full)" endpointresult=5.88
compound="C=C(C)C1CC[C@]2(C)CC1c1c(O)c3c(c(CCC(C)(C)Cl)c1O2)O[C@]12C(=C[C@@H]4C[C@@H]1C(C)(C)O[C@@]2(C/C=C(/C)C(=O)O)C4=O)C3=O (stereo not given in full)" endpointresult=5.79

Please turn your attention to the following entry.
What the record says about COC(=O)/C(C)=C\C[C@@]12OC(C)(C)[C@H]3C[C@@H](C=C4C(=O)c5c(O)c6c(c(CC=C(C)C)c5O[C@]431)O[C@]1(C)CCC(C3(C)CO3)C6C1)C2=O (stereo not given in full) : pIC50 is 6.31

* * *

# Lookup of reported pIC50 keyed by entry
system: HT-29; assay: Cytotoxicity against human HT-29 cells after 48 hrs by MTT assay; format: functional, cell-based; conditions: HT-29, 48 h
Just so you know, pIC50 here is -log10 of the concentration in molar units; reply with that number alone.

The examples below pair each entry with its known result.
compound="C=C(C)C1CC[C@]2(C)CC1c1c(O)c3c(c(C/C=C(\\C)CO)c1O2)O[C@]12C(=C[C@@H]4C[C@@H]1C(C)(C)O[C@@]2(C/C=C(/C)C(=O)OC)C4=O)C3=O (stereo partly drawn)" endpointresult=6.62
compound=COC(=O)/C(C)=C\C[C@@]12OC(C)(C)[C@H]3C[C@@H](C=C4C(=O)c5c(O)c6c(c(C/C=C(\C)CO)c5O[C@]431)O[C@]1(C)CCC(=C(C)C)C6C1)C2=O endpointresult=6.85

What the record says about COC(=O)/C(C)=C\C[C@@]12OC(C)(C)[C@H]3C[C@@H](C=C4C(=O)c5c(O)c6c(c(CC=C(C)C)c5O[C@]431)O[C@]1(C)CCC(=C(C)C)C6C1)C2=O : pIC50 is 6.27

* * *

system: HT-29; test: Cytotoxicity against human HT-29 cells after 48 hrs by MTT assay; type: functional, cell-based; settings: HT-29, 48 h
outcomeMeasure: IC50 (nM)
A number alone suffices; assume nM.

The examples below pair each entry with its known result.
compound="C=C(C)C1CC[C@]2(C)CC1c1c(O)c3c(c(CC=C(C)C)c1O2)O[C@]12C(=C[C@@H]4C[C@@H]1C(C)(C)O[C@@]2(C/C=C(/C)C(=O)OC)C4=O)C3=O (stereo partly specified)" endpointresult=810
compound="C=C(C)C1CC[C@]2(C)CC1c1c(O)c3c(c(CC=C(C)C)c1O2)O[C@]12C(=C[C@@H]4C[C@@H]1C(C)(C)O[C@@]2(C/C=C(/C)C(=O)O)C4=O)C3=O (stereo partly specified) [GAMBOGELLIC ACID]" endpointresult=1340
compound="C=C(C)C1CC[C@]2(C)CC1c1c(O)c3c(c(CCC(C)(C)Cl)c1O2)O[C@]12C(=C[C@@H]4C[C@@H]1C(C)(C)O[C@@]2(C/C=C(/C)C(=O)OC)C4=O)C3=O (stereo partly specified)" endpointresult=4550
compound="C/C(=C/C[C@@]12OC(C)(C)[C@H]3C[C@@H](C=C4C(=O)c5c(O)c6c(c(CCC(C)(C)Cl)c5O[C@]431)O[C@]1(C)CC(=O)C(C(C)C)C6C1)C2=O)C(=O)O (stereo partly specified)" endpointresult=5600

Please turn your attention to the following entry.
What the record says about COC(=O)/C(C)=C\C[C@@]12OC(C)(C)[C@H]3C[C@@H](C=C4C(=O)c5c(O)c6c(c(CC7OC7(C)C)c5O[C@]431)O[C@]1(C)CCC(=C(C)C)C6C1)C2=O (stereo partly specified) : IC50 is 120
